Reported TGI is given for each of the following compounds.
Tested on: SR leukemia
Assay: NCI tumour cell line growth inhibition, 48 h
MEASUREMENT TYPE: TGI

>>> data_value("COc1cc(C=O)cc(/C=N/N=C/c2ccccc2O)c1O")
"51.2 µM"
>>> data_value("COC(OC)(c1ccccc1)C(Br)Br")
"70.6 µM"
>>> data_value("CN(C)C=Nc1ccc2[nH]c3ccccc3c2c1")
"41 µM"
>>> data_value("CCN=C1Nc2ccccc2-n2c(nn3nc4ccccc4c23)N1CC")
"> 100 µM"

###

Tested on: HCT-15 colon
Test: NCI tumour cell line growth inhibition, 48 h
MEASUREMENT TYPE: TGI

>>> data_value("COc1cc2cc3c4c(cc(OC)c(OC)c4c2cc1OC)CCN3")
"> 100 µM"
>>> data_value("C/C=C/[C@@H]1[C@H]2C(=O)[C@]3(Cl)[C@@H](/C=C/C)[C@@H]3C(=O)[C@@]12Cl")
"> 100 µM"
>>> data_value("CCC(Cc1cnc2nc(N)nc(N)c2n1)c1ccc(C(=O)NC(CCC(=O)O)C(=O)O)cc1 (stereo not drawn)")
"> 100 µM"
>>> data_value("COc1cc(-c2nc3ccccc3s2)ccc1OCCCCCOc1cc2c(cc1OC)C(=O)N1CCC[C@H]1C=N2")
"6.02 µM"
>>> data_value("COC(=O)c1c(OC(C)=O)ccc2c1c1c(OC(C)=O)c3ccccc3c(OC(C)=O)c1n2C")
"> 100 µM"
>>> data_value("COC(=O)CCCC(=O)NC1=C(Nc2ccc(OC)cc2)C(=O)c2ccccc2C1=O")
"89 µM"
>>> data_value("CCCCCCCCc1ccc(OCCOCC[N+](C)(C)CC)cc1 (tested in a mixture with another compound)")
"> 100 µM"
>>> data_value("Oc1ccc(-c2nn3c(CCCCCCCCc4nnc5sc(-c6ccc(O)cc6)nn45)nnc3s2)cc1")
"> 100 µM"

Values compiled from PubChem BioAssay (NCI).
